// reported EC50 per item
# measuredTarget: human VPAC2 (Homo sapiens, UniProt P41587)
# Construct: expressed in transfected cells
# Sequence (P41587 24-438): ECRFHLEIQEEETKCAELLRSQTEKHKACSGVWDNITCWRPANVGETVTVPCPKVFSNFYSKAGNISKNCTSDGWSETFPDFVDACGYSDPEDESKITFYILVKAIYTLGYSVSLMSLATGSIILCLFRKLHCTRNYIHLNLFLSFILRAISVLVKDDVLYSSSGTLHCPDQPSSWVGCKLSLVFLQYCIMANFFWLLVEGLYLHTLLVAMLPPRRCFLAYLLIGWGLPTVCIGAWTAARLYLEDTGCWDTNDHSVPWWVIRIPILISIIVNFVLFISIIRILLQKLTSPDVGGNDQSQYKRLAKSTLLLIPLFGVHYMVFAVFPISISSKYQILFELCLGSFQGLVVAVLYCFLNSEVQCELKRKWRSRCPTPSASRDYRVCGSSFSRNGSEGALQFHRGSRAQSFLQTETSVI
# methodNotes: Alpha screen cAMP in vitro potency, human VPAC2 receptor
# Assay type: cell-based
Where no end group is shown, it is not given here.
A complete answer gives the number followed by the unit.

1) MHSDAVFTDNYTRLLAKLALQKYLQSIKNKRYGGPSSGAPPPS [Agonist P140]	0.07 nM

Now take the following substance into account.
[ask] Which value of EC50 has been reported for H-MHSDAVFTDNYTRLRKQVAAKKYLQSIKNKRYGGPSSGAPPPS [Agonist P104] in the records?
[reply] 0.27 nM

====

Measured EC50 by item
# measuredTarget: human VPAC2 (Homo sapiens, UniProt P41587)
# Construct: expressed in transfected cells
# Sequence (P41587 24-438): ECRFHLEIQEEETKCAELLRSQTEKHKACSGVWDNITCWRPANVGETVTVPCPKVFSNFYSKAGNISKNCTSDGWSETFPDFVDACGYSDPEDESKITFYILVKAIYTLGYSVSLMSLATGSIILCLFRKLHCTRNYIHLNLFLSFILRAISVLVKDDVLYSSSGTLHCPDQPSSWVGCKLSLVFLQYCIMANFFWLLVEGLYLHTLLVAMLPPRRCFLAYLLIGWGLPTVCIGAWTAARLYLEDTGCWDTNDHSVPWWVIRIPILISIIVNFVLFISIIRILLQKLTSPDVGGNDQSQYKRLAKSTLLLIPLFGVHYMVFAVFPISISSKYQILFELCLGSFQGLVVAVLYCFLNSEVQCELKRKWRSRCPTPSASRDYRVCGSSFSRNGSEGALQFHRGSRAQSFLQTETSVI
# methodNotes: Alpha screen cAMP in vitro potency, human VPAC2 receptor
# Format: cell-based
# conditionInfo: cAMP generation; single result from two analyses performed in a single run; read-out: Human VPAC2 Receptor: Alpha Screen EC50
# Text: Alpha screen: Cells are washed in the culture flask once with PBS. Then, the cells are rinsed with enzyme free dissociation buffer. The dissociated cells are removed. The cells are then spun down and washed in stimulation buffer. For each data point, 50,000 cells suspended in stimulation buffer are used. […] The Alpha screen signal (indicative of intracellular cAMP levels) is read in a suitable instrument (e.g. AlphaQuest from Perkin-Elmer). […]
Where no end group is shown, it is not given here. [ ]: non-standard residue; d: D form. The star is where a group is joined. Hexanoyl = CCCCCC(=O)*; Aib = CC(C)(N)C(=O)O
Please give a number only; it is taken to be in nM.

Here are 4 substances together with their reported answers.
1. Hexanoyl-HSDAVFTDNYTRLRKQVAAKKYLQSWKNKRYGGPSSGAPPPS [Agonist P110]	0.13
2. Hexanoyl-HSDAVFTDNYTRLR[Aib]QKAA[Aib]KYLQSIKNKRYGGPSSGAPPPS [Agonist P323]	0.23
3. HSDAVFTDNYTRLRKQVAAKKYLQSIKNKRYGGPSSGAPPPS [Agonist P6]	3.19
4. Hexanoyl-HSDAVFTDNYTRLKAQVAAKKYLQSIKNKRYGGPSSGAPPPS [Agonist P141]	0.72

[ask] Which measured EC50 value corresponds to Hexanoyl-HSDAVFTDNYTRLRKQVAAWKYLQSIKNKRYGGPSSGAPPPS [Agonist P153] ?
[reply] 0.11

[ask] Sample Hexanoyl-HSDAVFTDNYTRLRKQVAAKKYFQSIKNKRYGGPSSGAPPPS [Agonist P231] — what was its EC50?
[reply] 0.26

[ask] For the substance Hexanoyl-HSDAVFTDNYTRLK[Aib]QVAA[Aib]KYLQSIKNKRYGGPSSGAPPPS [Agonist P318] , what EC50 is on record?
[reply] 0.32

[ask] # lookup: EC50 of Hexanoyl-HSDAVFTDNYTRLR[Aib]QVAAK[Aib]YLQSIKNKRYGGPSSGAPPPS [Agonist P264]
[reply] 0.1

Source listed as patent US20080026996A1.
